- assayText: Plasma concentration in mouse at 200 mg/kg, po qd for 14 days measured after 1 hr
- Assay type: ADME, organism-based
property: concentration at 1 h (nM)
The reply should be a number in nM, with the unit left off.

The compound listed as "CCCCN1CCC(N(Cc2ccccc2)C(=O)Nc2ccc(Cl)c(Cl)c2)CC1" has a reported concentration at 1 h of 2400

* * *

- assayText: Clearance in mouse at 100 mg/kg, po administered as single dose
- Assay type: ADME, organism-based
- conditionLabel: in vivo
property: CL/F (mL/min/kg)
The reply should be a number in mL/min/kg, with the unit left off.

The compound listed as "CCCCN1CCC(N(Cc2ccccc2)C(=O)Nc2ccc(Cl)c(Cl)c2)CC1" has a reported CL/F of 367
